Data origin, for the record: PubChem BioAssay AID1259343

test: Mycobacterium tuberculosis growth inhibition, primary screen (AID 1259343); details: at 10 µM, stronger effect = higher value
Out of some 6,200 compounds screened, about 2,900 (47%) were called active. The set was probably picked from earlier hits. The list shows a part of the results.
quantity-measured: inhibition (%)

[[record]]
compound = "CCN1CCc2c(sc(NC(=O)c3ccco3)c2-c2nc3ccccc3s2)C1"
quantity_measured = "inhibition"
quantitative_readout = 87.1

[[record]]
compound = "NC(=O)c1csc(CNc2ccc(F)cc2)c1"
quantity_measured = "inhibition"
quantitative_readout = 68.7

[[record]]
compound = "CCN1CCc2c(sc(NC(C)=O)c2-c2nc3ccccc3s2)C1"
quantity_measured = "inhibition"
quantitative_readout = 79.4

[[record]]
compound = "Cc1nc(Cl)cc(NC(C)c2ccc(Cl)c(Cl)c2)n1 (configuration not stated)"
quantity_measured = "inhibition"
quantitative_readout = 6.72

[[record]]
compound = "Cc1oc(-c2ccc(Cl)cc2)nc1CN(C)Cc1ccc2nonc2c1"
quantity_measured = "inhibition"
quantitative_readout = 31.7

[[record]]
compound = "COc1cccc(-c2cnnc(NCCc3ccccc3F)n2)c1"
quantity_measured = "inhibition"
quantitative_readout = 19.2

[[record]]
compound = "CN(Cc1ccc(-c2ccc(Cl)cc2)o1)C(=O)CCl"
quantity_measured = "inhibition"
quantitative_readout = 90.9

[[record]]
compound = "COC(=O)COc1cc(Cl)c(Cl)cc1Cl"
quantity_measured = "inhibition"
quantitative_readout = 77.4

[[record]]
compound = "CN1CCN(Cn2nc(-c3ccc4c(c3)OCO4)oc2=S)CC1"
quantity_measured = "inhibition"
quantitative_readout = 86.7

[[record]]
compound = "Cc1cc(C)cc(-c2nn(CN3CCOCC3(C)C)c(=S)o2)c1"
quantity_measured = "inhibition"
quantitative_readout = -38.7

[[record]]
compound = "NC(=O)c1csc(C(=O)NC2CC2c2cccc(Cl)c2)c1 (configuration not stated)"
quantity_measured = "inhibition"
quantitative_readout = 27.2

[[record]]
compound = "CN(Cc1ccc(-c2ccc(Cl)cc2)o1)C(=O)CNC(=O)c1ccccc1"
quantity_measured = "inhibition"
quantitative_readout = 72.2

